Test system: Fibroblast
experimental_details: Multiplex assay against human fibroblast
Format: toxicity, cell-based
particulars: 24 h, 10 µM, compound concentration 10 uM, replicate 1
Values of Population Healthy Nuclei (%) greater than or equal to 60% map to True; values below map to False.

Reference set, count: 7
[[record]]
compound = "COc1cc(OC2CCN(C(C)=O)CC2)ccc1C(=O)N1CCC(N2C(=O)OCc3ccccc32)CC1"
category = "True"

[[record]]
compound = "Cc1sc2c(c1C)C(c1ccc(Cl)cc1)=N[C@H](CC(=O)OC(C)(C)C)c1nnc(C)n1-2"
category = "True"

[[record]]
compound = "COc1cc2nc(N3CCN(C(=O)COc4c(OC)cccc4C(C)C)CC3)nc(N)c2cc1OC.Cl.Cl"
category = "False"

[[record]]
compound = "OCCCNc1cc(-c2ccnc(Nc3cccc(Cl)c3)n2)ccn1"
category = "False"

[[record]]
compound = "CCC(=O)OCC(=O)[C@@]1(OC(=O)CC)[C@@H](C)C[C@H]2[C@@H]3CCC4=CC(=O)C=C[C@]4(C)[C@@]3(Cl)[C@@H](O)C[C@@]21C [BECLOMETHASONE DIPROPIONATE]"
category = "True"

[[record]]
compound = "Cc1cc(O)c(-c2ccc([C@@H](C)CN(C)C)cc2)c2c1[nH]c(=O)c1sccc12"
category = "True"

[[record]]
compound = "O=C(Nc1cc(-c2ccccc2)nn1-c1ccccc1F)c1ccc([N+](=O)[O-])cc1"
category = "True"


Now for a further compound.
Check the entry COCCCN1CCC(NC(=O)c2cc(Cl)c(N)c3c2OCC3)CC1 [PRUCALOPRIDE] : does Population Healthy Nuclei (%) equal or exceed 60%? True
